Values from ChEMBL document CHEMBL3739399

Test system: Enterococcus faecalis
Test: Antibacterial activity against Enterococcus faecalis for 18 to 20 hrs by broth microdilution method
Type: functional
Cut-off 0.2 µg/mL on MIC: below means T, at or above means F.

Past entries and their recorded results:
Smiles: CCCc1cccc2c(-c3cnc(-c4ccc(CC(=O)O)nc4)s3)n[nH]c12
Cat: F
--
Smiles: CCCc1cccc2c(-c3cnc(-c4cnc(C(=O)O)cc4C)s3)n[nH]c12
Cat: T
--
Smiles: CCCc1cccc2c(-c3cnc(-c4ccc(CO)nc4)s3)n[nH]c12
Cat: F
--
Smiles: CCCOc1nccc2c(-c3cnc(-c4ccc(CO)nc4)s3)n[nH]c12
Cat: F
--
Smiles: C=CCc1cccc2c(-c3cnc(-c4ccc(C(=O)O)nc4)s3)n[nH]c12
Cat: T
--
Smiles: CCCc1cccc2c(-c3cnc(-c4cnc(C(=O)O)c(O)c4)s3)n[nH]c12
Cat: T

INPUT: Is the reported MIC for CCOc1nccc2c(-c3cnc(-c4cnc(C(=O)O)cc4C)s3)n[nH]c12 strictly below 0.2 µg/mL?
OUTPUT: F

INPUT: Let us now turn to CCCc1cccc2c(-c3cnc(-c4cnc(C(=O)OC)c(O)c4)s3)n[nH]c12
OUTPUT: F

INPUT: And the next one, CCCOc1nccc2c(-c3cnc(-c4ccc(COP(=O)([O-])[O-])nc4)s3)n[nH]c12.[Na+].[Na+] ?
OUTPUT: F

INPUT: Now the compound CCCc1cccc2c(-c3cnc(-c4ccc(C(=O)NCCN5CCCCC5)nc4)s3)n[nH]c12
OUTPUT: F

INPUT: Another compound to look at: CCCc1cccc2c(-c3cnc(-c4ccc(C(=O)OC)nc4)s3)n[nH]c12
OUTPUT: F

INPUT: Also CCCc1c(O)ccc2c(-c3cnc(-c4cnc(C(=O)O)c(O)c4)s3)n[nH]c12 , if possible.
OUTPUT: T

INPUT: Follow-up item: CCCc1cccc2c(-c3cnc(-c4ccc(C(=O)O)cn4)s3)n[nH]c12
OUTPUT: F

* * *

Tested on: Staphylococcus aureus
Assay: Antibacterial activity against methicillin and ciprofloxacin-resistant Staphylococcus aureus 1721 for 18 to 20 hrs by broth microdilution method
Assay type: functional
Observation type: MIC

Observe how each entry below is paired with its result.
Smiles: CCCc1cccc2c(-c3cnc(-c4ccnc(C(=O)O)c4)s3)n[nH]c12
MIC: > 8 µg/mL
//
Smiles: CCCc1cccc2c(-c3cnc(-c4ccc(C(=O)O)cn4)s3)n[nH]c12
MIC: > 8 µg/mL

INPUT: // MIC lookup, key: CCCc1cccc2c(-c3cncs3)n[nH]c12
OUTPUT: > 32 µg/mL

* * *

Tested on: Enterococcus faecium
Test: Antibacterial activity against Enterococcus faecium for 18 to 20 hrs by broth microdilution method
Type: functional
Observation type: MIC

Here is how some compounds turned out for MIC.
Smiles: CCCc1cccc2c(-c3cnc(-c4ccc(C(=O)OC)nc4)s3)n[nH]c12
MIC: > 8 µg/mL
--
Smiles: CCCc1cccc2c(-c3cnc(-c4ccnc(C(=O)O)c4)s3)n[nH]c12
MIC: > 8 µg/mL

# context switch: different compound, same MIC
INPUT: Looking for the measured MIC of CCCc1cccc2c(-c3cnc(-c4ccc(C(=O)NCCN5CCCCC5)nc4)s3)n[nH]c12 , can you help?
OUTPUT: > 8 µg/mL
